Hi there, I'd appreciate the recorded EC50 for every entry that follows.
experimental.target: T1, SARS-COV-2 RBD (SARS-COV-2, UniProt P0DTC2 319-539)
T1 construct: also called WT RBD
protocol.notes: ELISA, RBD coated
Answers are plain numbers, in ng/mL.

Known EC50 results, listed for orientation:
>>> test_result("C1006 (antibody, V domains shown, IgG; V domains only) VH: QVQLVQSGAEVRKPGSSVKVSCKASGGPFDQYTFSWVRQAPGQGLEWMARITPVVDLTNYAQKFQGRITIITDKSTSTAYMELSSLRSEDTAIYYCATPLNDYYASGNLGLWGQGTLVTVSS VL: DIQMTQSPSSLSASIGDRVTITCRASQGISYYLAWFQQKPGEAPRSLIYDASSLQSGVPSKFSGSGSGTDFTLTISSLQPEDSATYYCQQYNSYPLTFGGGTKVEIK")
2.04
>>> test_result("C959 (antibody, V domains shown, IgG; V domains only) VH: QVQLQESGPGLVKPSETLSLNCNVSGGSISNYYWSWIRQPPGKGLEWIGFISYSGSTDYNPSLKSRVIISIDTSKKHFSLNLSSVTAADTAVYFCARHYDILTALSWFDPWGQGTLVTVSS VL: QSVLTQPPSVSAAPGQTVTISCSGSSSNIRNNFVSWYQQFPGTAPKLLIYDNNKRPSGIPDRFSGSKSGTSATLGITGLQTGDEADYYCGTWDSSPSACWVFGAGTKLTV")
4.58

Here is another binder to look at.
Please list EC50 recorded for the binder C1008 (antibody, V domains shown, IgG; V domains only) VH: EVQLVESGGGLIQPGGSLRLSCAASGFTVSSNYMSWVRQAPGKGLEWVSVIYSGGSTYYADSVKGRFTISRDNSKNTLYLQMNSLRAEDTAVYYCARVVGYDFWSGYDGGYFDYWGQGTLVTVSS VL: QSALTQPASVSGSPGQSITISCTGTSSDVGSYNLVSWYQQHPGKAPKLMIYEVSKRPSGVSNRFSGSKSGNTASLTISGLQAEDEADYYCCSYAGSSTWVFGGGTKLTVL 17.2
